MEASURED_ON: human A3 receptors (Homo sapiens, UniProt P0DMS8)
Construct: expressed in transfected cells; host or cells: HEK-293
Sequence (P0DMS8 whole entry): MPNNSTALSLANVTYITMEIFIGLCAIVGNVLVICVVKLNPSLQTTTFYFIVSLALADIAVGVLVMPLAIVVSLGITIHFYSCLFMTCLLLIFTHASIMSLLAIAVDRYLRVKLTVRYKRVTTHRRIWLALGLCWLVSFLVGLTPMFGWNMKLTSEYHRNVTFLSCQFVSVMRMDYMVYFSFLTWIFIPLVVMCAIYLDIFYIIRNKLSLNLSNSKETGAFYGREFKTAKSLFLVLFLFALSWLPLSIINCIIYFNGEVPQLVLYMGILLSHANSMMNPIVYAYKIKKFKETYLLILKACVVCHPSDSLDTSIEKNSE
ASSAY_TEXT: Displacement of [125I]AB-MECA binding at human A3 receptors expressed in HEK cells
PROTOCOL_CONDITIONS: read-out: Ki hA3
PROPERTY_MEASURED: Ki

CCCn1c(=O)c2[nH]c(-c3ccc(OCC(=O)NN4C(=O)CCC4=O)cc3)nc2n(CCC)c1=O = 766 nM
CCCn1c(=O)c2[nH]c(-c3ccc(OCC(=O)NN4C(=O)C5=C(CCCC5)C4=O)cc3)nc2n(CCC)c1=O [Compound 20b] = 245 nM
CCCn1c(=O)c2[nH]c(-c3ccc(OCC(=O)NNC(=O)C4CC=CCC4C(=O)O)cc3)nc2n(CCC)c1=O (stereo not shown) [Compound 18a] = 1060 nM
CCCn1c(=O)c2[nH]c(-c3ccc(OCC(=O)NN4C(=O)CC[C@H](NC(=O)C(F)(F)F)C4=O)cc3)nc2n(CCC)c1=O [Compound 24b] = 726 nM
CCCn1c(=O)c2nc(-c3ccc(OCC(=O)NN)cc3)[nH]c2n(CCC)c1=O = 498 nM
CCCn1c(=O)c2[nH]c(-c3ccc(OCC(=O)NNC(=O)CNC(=O)CNC(=O)OCc4ccccc4)cc3)nc2n(CCC)c1=O = 323 nM
CCCn1c(=O)c2[nH]c(-c3ccc(OCC(=O)NNC(=O)[C@H](CCC(=O)O)NC(=O)C(F)(F)F)cc3)nc2n(CCC)c1=O [Compound 24a] = 430 nM
CCCn1c(=O)c2[nH]c(-c3ccc(OCC(=O)NN4C(=O)CC(O)CC4=O)cc3)nc2n(CCC)c1=O = 290 nM
CCCn1c(=O)c2[nH]c(-c3ccc(OCC(=O)NNC(=O)[C@H](CCSC)NC(=O)OC(C)(C)C)cc3)nc2n(CCC)c1=O = 690 nM
CCCn1c(=O)c2[nH]c(-c3ccc(OCC(=O)NN4C(=O)CCCC4=O)cc3)nc2n(CCC)c1=O = 200 nM
CCCn1c(=O)c2[nH]c(-c3ccc(OCC(=O)NN4C(=O)C5=C(CCC5)C4=O)cc3)nc2n(CCC)c1=O [Compound 19b] = 308 nM
CCCn1c(=O)c2[nH]c(-c3ccc(OCC(=O)NN4C(=O)C5CC=CCC5C4=O)cc3)nc2n(CCC)c1=O (stereo not shown) [Compound 18b] = 370 nM
CCCn1c(=O)c2[nH]c(-c3ccc(OCC(=O)NN4C(=O)C=C(c5ccccc5)C4=O)cc3)nc2n(CCC)c1=O = 748 nM
